# TARGET OR SYSTEM: ClpC1 NTD protein (M. tuberculosis) (Mycobacterium tuberculosis, UniProt P9WPC9)
# Sequence (P9WPC9 1-156, looked up, natural form): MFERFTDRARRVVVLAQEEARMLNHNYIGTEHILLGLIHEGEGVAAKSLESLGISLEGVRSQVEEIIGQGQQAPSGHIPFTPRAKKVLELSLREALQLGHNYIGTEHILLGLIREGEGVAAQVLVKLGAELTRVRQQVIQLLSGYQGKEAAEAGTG
# METHOD NOTES: biochemical
# Assay type: binding
# CONDITION: SPR, single independent measurements; read-out: koff ClpC1-NTD
Examples of molecules with documented koff follow.
Your answer should be a plain number; it is taken to be in s⁻¹.

Example cases with answers are listed next.
| MOLECULE | koff / s⁻¹ |
| --- | --- |
| CO[C@H](c1ccccc1)[C@@H]1NC(=O)[C@H](C)NC(=O)[C@H](C[C@@H](C)CO)N(C)C(=O)[C@H](Cc2cn(Cc3cn(CCCCCn4cc(Cn5cc(C[C@@H]6NC(=O)[C@H](C(C)C)NC(=O)[C@H](CC(C)C)N(C)C(=O)[C@H](C(C)C)NC(=O)[C@H]([C@H](OC)c7ccccc7)NC(=O)[C@H](C)NC(=O)[C@H](C[C@@H](C)CO)N(C)C6=O)c6ccccc65)nn4)nn3)c3ccccc23)NC(=O)[C@H](C(C)C)NC(=O)[C@H](CC(C)C)N(C)C(=O)[C@H](C(C)C)NC1=O [Compound 9] | 0.0005 |
| CCCCCn1cc(C[C@@H]2NC(=O)[C@H](CC(C)C)N(C)C(=O)[C@H](C(C)C)NC(=O)[C@H]([C@H](OC)c3ccccc3)NC(=O)[C@H](C)NC(=O)[C@H](C[C@@H](C)CO)N(C)C(=O)[C@H](Cc3cn(C)c4ccccc34)N(C)C2=O)nn1 [Compound 25] | 0.1 |
| CO[C@H](c1ccccc1)[C@@H]1NC(=O)[C@H](C)NC(=O)[C@H](C[C@@H](C)CO)N(C)C(=O)[C@H](Cc2cn(Cc3cn(CCCCCn4cc(Cn5cc(C[C@H]6C(=O)N(C)[C@@H](C[C@@H](C)CO)C(=O)N[C@@H](C)C(=O)N[C@@H]([C@H](OC)c7ccccc7)C(=O)N[C@@H](C(C)C)C(=O)N(C)[C@@H](CC(C)C)C(=O)N[C@@H](C(C)C)C(=O)N6C)c6ccccc65)nn4)nn3)c3ccccc23)N(C)C(=O)[C@H](C(C)C)NC(=O)[C@H](CC(C)C)N(C)C(=O)[C@H](C(C)C)NC1=O [SI-57] | 0.002 |

Reported koff for CO[C@H](c1ccccc1)[C@@H]1NC(=O)[C@H](C)NC(=O)[C@H](C[C@@H](C)CO)N(C)C(=O)[C@H](Cc2cn(Cc3cn(CCOCCOCCOCCn4cc(Cn5cc(C[C@@H]6NC(=O)[C@H](C(C)C)NC(=O)[C@H](CC(C)C)N(C)C(=O)[C@H](C(C)C)NC(=O)[C@H]([C@H](OC)c7ccccc7)NC(=O)[C@H](C)NC(=O)[C@H](C[C@@H](C)CO)N(C)C6=O)c6ccccc65)nn4)nn3)c3ccccc23)NC(=O)[C@H](C(C)C)NC(=O)[C@H](CC(C)C)N(C)C(=O)[C@H](C(C)C)NC1=O [Compound 7] : what is it?
0.001

====

compounds and their reported Hepatocyte Stability Mouse QH
# METHOD NOTES: Hepatocyte stability, mice
# Type: in vitro ADME
# CONDITION: Mouse
*1 amine or outer side, *2 acyl side, *3 side chain or, on linkers, in order; H or OH if unused. Where a SMILES comes first, the peptide text is derived from it. [ ]: non-standard residue; d: D form. ξ: configuration not given here. X3 = C#CCOc1ccc([C@@H](OC)[C@H](N[*:1])C(=O)[*:2])cc1; X7 = C=CCn1cc(C[C@H](N[*:1])C(=O)[*:2])c2ccccc21; NMeLeu(5-OH,4R) = CN[C@@H](C[C@@H](C)CO)C(=O)O; Phe(βR-OMe) = CO[C@H](c1ccccc1)[C@H](N)C(=O)O; ξNMeTrp(1-Me) = CNC(Cc1cn(C)c2ccccc12)C(=O)O; Trp(1-Me) = Cn1cc(C[C@H](N)C(=O)O)c2ccccc21; X8 = CC(CO)C[C@@H](C(=O)[*:2])N(C)[*:1]; NMeL = CN[C@@H](CC(C)C)C(=O)O; Pra = C#CC[C@H](N)C(=O)O; ξV = CC(C)C(N)C(=O)O
Give just the number in %; leave the unit off.

Worked cases, Hepatocyte Stability Mouse QH given:
| COMPOUND | Hepatocyte Stability Mouse QH [%] |
| --- | --- |
| C#CCOc1ccc([C@@H](OC)[C@@H]2NC(=O)[C@@H](C)NC(=O)[C@H](CC(C)CO)N(C)C(=O)C(Cc3cn(C)c4ccccc34)N(C)C(=O)C(C(C)C)NC(=O)[C@H](CC(C)C)N(C)C(=O)[C@@H](C(C)C)NC2=O)cc1 (stereo partly shown) [SI-64] (cyclo([NMeL][ξV][ξNMeTrp(1-Me)][X8][dA][X3][dV])) | 34.335 |
| CCCCCn1cc(C[C@@H]2NC(=O)[C@H](CC(C)C)N(C)C(=O)[C@H](C(C)C)NC(=O)[C@H]([C@H](OC)c3ccccc3)NC(=O)[C@H](C)NC(=O)[C@H](C[C@@H](C)CO)N(C)C(=O)[C@H](Cc3cn(C)c4ccccc34)NC2=O)nn1 [Compound 24] | 35.166 |
| C=CCn1cc(C[C@@H]2NC(=O)[C@H](C(C)C)NC(=O)[C@H](CC(C)C)N(C)C(=O)[C@H](C(C)C)NC(=O)[C@H]([C@H](OC)c3ccccc3)NC(=O)[C@H](C)NC(=O)[C@H](C[C@@H](C)CO)N(C)C2=O)c2ccccc21 [Compound 13] (cyclo(A[Phe(βR-OMe)]V[NMeL]V[X7][NMeLeu(5-OH,4R)])) | 58.852 |

What value of Hepatocyte Stability Mouse QH has been recorded for this entry: C#CC[C@@H]1NC(=O)[C@H](CC(C)C)N(C)C(=O)[C@H](C(C)C)NC(=O)[C@H]([C@H](OC)c2ccccc2)NC(=O)[C@H](C)NC(=O)[C@H](C[C@@H](C)CO)N(C)C(=O)[C@H](Cc2cn(C)c3ccccc23)NC1=O [Compound 10] (cyclo(A[Phe(βR-OMe)]V[NMeL][Pra][Trp(1-Me)][NMeLeu(5-OH,4R)]))
64.420

Source listed as paper PMC10914731.
